Data origin, for the record: patent US6737383B1

- System: giant foxtail
- assay summary: Test B pre/postemergence giant foxtail
- Type: in vivo, Setaria faberii
- condition parameters: Rate 250 g/ha; Postemergence
recorded metric: Plant response rating (0 to 10; 0 is no effect, 10 is complete control), Giant foxtail
Could you keep your reply to the number by itself?

Use the examples below as a reference point.
CC(C)N(C(=O)n1oc(=O)n([C@H](C)c2ccccc2)c1=O)c1ccc(F)cc1F [Compound 238]
0
CON=C(Cn1c(=O)on(C(=O)N(c2ccc(F)cc2)C(C)C)c1=O)C(F)(F)F [Compound 227]
0
CC(C)N(C(=O)n1oc(=O)n(Cc2ccco2)c1=O)c1ccc(Cl)cc1 [Compound 206]
0

# input compound: COC(=O)Cn1c(=O)on(C(=O)N(c2ccc(F)cc2)C(C)C)c1=O [Compound 215] ; wanted: its Plant response rating (0 to 10; 0 is no effect, 10 is complete control), Giant foxtail
3

# input compound: CC(C)N(C(=O)n1oc(=O)n(CC(=O)C(C)(C)C)c1=O)c1ccc(F)cc1 [Compound 216] ; wanted: its Plant response rating (0 to 10; 0 is no effect, 10 is complete control), Giant foxtail
4
